# Test system: Thoracic aorta
# Assay Explanation: Myorelaxant activity in endothelium-free rat thoracic aorta assessed as inhibition of 30 mM of KCl-induced contraction in presence of 10 uM of KATP channel blocker glibenclamide
# Assay type: functional, tissue-based
Quantity Kind: EC50
I'd appreciate it if you wrote the number followed by its unit.

Can you look up the measured EC50 of CC1(C)CC(NC(=S)Nc2cccc(Cl)c2)c2cc(NS(C)(=O)=O)ccc2O1 (stereo not drawn) for me?
15.7 µM

Can you share its EC50? I mean this compound: COc1ccc(CCN(C)CCCC(C#N)(c2ccc(OC)c(OC)c2)C(C)C)cc1OC (stereo not drawn) [VERAPAMIL]
0.035 µM

Which EC50 is reported for this compound? CC1(C)Oc2ccc(C#N)cc2C(N2CCCC2=O)C1O (racemic) [CROMAKALIM]
28.8 µM

----------
# Test system: Thoracic aorta
# Assay Explanation: Myorelaxant activity in endothelium-free rat thoracic aorta assessed as inhibition of 30 mM of KCl-induced contraction
# Format: functional, tissue-based
Assign EC50 to each entry below.
Give the quantity in µM, number only.

Reported EC50 for COc1ccc(CCN(C)CCCC(C#N)(c2ccc(OC)c(OC)c2)C(C)C)cc1OC (centres undefined) : what is it?
0.031

Look at this compound and give its reported EC50. CCS(=O)(=O)Nc1ccc2c(c1)C(NC(=O)Nc1ccc(C#N)cc1)CC(C)(C)O2 (centres undefined)
11.8

Requested field: EC50. Item: CCS(=O)(=O)Nc1ccc2c(c1)C(NC(=S)Nc1ccc(Cl)cc1)CC(C)(C)O2 (centres undefined)
5.1

Can you look up the measured EC50 of CC1(C)CC(NC(=S)Nc2cccc(C#N)c2)c2cc(NS(C)(=O)=O)ccc2O1 (centres undefined) for me?
9.8

Which EC50 value is on record for CCS(=O)(=O)Nc1ccc2c(c1)C(NC(=O)Nc1cccc(C#N)c1)CC(C)(C)O2 (centres undefined) ?
9.5

Request the reported EC50 associated with CC1(C)CC(NC(=S)Nc2ccc(Cl)cc2)c2cc(NS(C)(=O)=O)ccc2O1 (centres undefined)
11.6

# input compound: CC1(C)CC(NC(=O)Nc2cccc(Cl)c2)c2cc(NS(C)(=O)=O)ccc2O1 (centres undefined) ; wanted: its EC50
15.2

I have this compound here, CCS(=O)(=O)Nc1ccc2c(c1)C(NC(=S)Nc1cccc(Cl)c1)CC(C)(C)O2 (centres undefined) , and I need its recorded EC50.
9.8

Using the record for CC1(C)Oc2ccc(C#N)cc2C(N2CCCC2=O)C1O (racemic) , report its EC50.
0.13

Which EC50 is reported for this compound? CCS(=O)(=O)Nc1ccc2c(c1)C(NC(=O)Nc1cccc(Cl)c1)CC(C)(C)O2 (centres undefined)
17.2

Which EC50 is listed for CC1(C)CC(NC(=S)Nc2cccc(Cl)c2)c2cc(NS(C)(=O)=O)ccc2O1 (centres undefined) ?
9.8

Entry under review: CCS(=O)(=O)Nc1ccc2c(c1)C(NC(=S)Nc1ccc(C#N)cc1)CC(C)(C)O2 (centres undefined) . Reported EC50?
12

// query EC50 value for entry CC1=Nc2ccc(Cl)cc2S(=O)(=O)N1 [DIAZOXIDE]
26.1

Which value of EC50 has been reported for CC1(C)CC(NC(=O)Nc2ccc(C#N)cc2)c2cc(NS(C)(=O)=O)ccc2O1 (centres undefined) in the records?
19.8

Entry CC1(C)CC(NC(=O)Nc2cccc(C#N)c2)c2cc(NS(C)(=O)=O)ccc2O1 (centres undefined) : reported EC50 = ?
9.3

Need EC50, item CCS(=O)(=O)Nc1ccc2c(c1)C(NC(=S)Nc1cccc(C#N)c1)CC(C)(C)O2 (centres undefined)
12.1

Recorded EC50 for CC1(C)CC(NC(=S)Nc2ccc(C#N)cc2)c2cc(NS(C)(=O)=O)ccc2O1 (centres undefined) , please?
11.6
